So I've got a bunch of sequences here, and I need their self-splicing fitness (ln) values.
- TEST PROTOCOL: self-splicing fitness, log relative to wild type (ln ratio); higher = more splicing; Tetrahymena group I intron in knt gene, E. coli kanamycin selection, DiMSum; sequences stand for … in CUCUCU…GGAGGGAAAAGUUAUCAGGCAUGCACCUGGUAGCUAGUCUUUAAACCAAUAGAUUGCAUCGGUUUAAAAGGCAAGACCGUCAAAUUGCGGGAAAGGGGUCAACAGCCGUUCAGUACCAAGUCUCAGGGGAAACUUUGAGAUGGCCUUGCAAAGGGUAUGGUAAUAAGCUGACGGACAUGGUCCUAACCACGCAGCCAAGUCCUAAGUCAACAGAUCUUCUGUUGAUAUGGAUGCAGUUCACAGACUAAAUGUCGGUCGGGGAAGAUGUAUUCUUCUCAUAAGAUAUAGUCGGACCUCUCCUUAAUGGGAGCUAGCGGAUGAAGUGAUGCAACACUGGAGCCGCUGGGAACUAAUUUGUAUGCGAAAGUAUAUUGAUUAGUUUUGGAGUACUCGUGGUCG;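 note: selection with 25 µg/mL kanamycin versus none on LB agar overnight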
- MEASUREMENT PARAMETERS: 37 °C
Hey, just send me the number, nothing else.

Query: # return recorded self-splicing fitness (ln) for entry CGAUAGCAAUAUUACGCGUU
Reply: -2.51

Query: Report self-splicing fitness (ln), nothing else, for this sequence: CGUUAGCAAUAUUACGCACU
Reply: -0.906

Query: Please report self-splicing fitness (ln) for the following sequence: CGCCAGCAAUAUUACGCUGU
Reply: -2.69

Query: Hello, please tell me recorded self-splicing fitness (ln) for this one: CAUCAGCAAUAUUACGAGCC
Reply: -2.33

Query: Report self-splicing fitness (ln) for AGCAAGCAAUAUUACGAUCA
Reply: -0.0192

Query: State its self-splicing fitness (ln): CCGCAGCAAUAUUACGCGCA
Reply: -1.41

Query: Specify reported self-splicing fitness (ln) for the sequence shown: GGGAAGCAAUAUUACGACUA
Reply: 0.352

Query: Could you please provide reported self-splicing fitness (ln) for CAUGAGCAAUAUUACGGAUU ? Thanks!
Reply: -2.52
